Listed here: items and their measured pIC50.
- TARGET ENTITY: glutathione S-transferase (GST)-fused full-length human Syk protein (Homo sapiens, UniProt P43405)
- Construct: (GST)-fused full-length human Syk protein; GST (glutathione S-transferase); purchased Carna Biosciences
- EXPERIMENTAL PROTOCOL: Syk enzyme assay
- Format: biochemical
- CONDITIONS: Syk enzyme assay, Test Example 1; read-out: IC50 of Syk-inhibitory activity
pIC50: −log10 of the molar value.

[
  {
    "COMPOUND": "CC[C@H](N)[C@@H](CC)Nc1nc(Nc2cc(OC)nc(OC)c2)c(C(N)=O)cc1F",
    "pIC50": "> 8.00"
  },
  {
    "COMPOUND": "Cc1ncc(Nc2nc(NC3CCCCC3N)c(F)cc2C(N)=O)cc1N1CCCC1 (stereo not shown)",
    "pIC50": "7.30 to 8.00"
  },
  {
    "COMPOUND": "CCC[C@@H](Nc1nc(Nc2cnc(OC)c(-n3nccn3)c2)c(C(N)=O)cc1F)[C@H](C)N",
    "pIC50": "7.30 to 8.00"
  },
  {
    "COMPOUND": "Cc1nn(CCF)c2cc(Nc3nc(N[C@H](CC4CC4)[C@H](C)N)c(F)cc3C(N)=O)ccc12",
    "pIC50": "> 8.00"
  }
]

---

IC50 listing for selected molecules.
- Test system: THP-1 cells
- EXPERIMENTAL PROTOCOL: TNFα generation assay
- Format: cell-based, human
- CONDITIONS: Homo sapiens, THP-1, THP-1 cells; Table 22; read-out: IC50 in TNFα generation assay
- Protocol: THP-1 cells (2×10^5 cells/ml), which were human monocytoid cells, were cultured in the presence of 10 ng/ml IFN-γ (Roche) for 2 days, so that the cells were induced to differentiate into macrophage-like cells. […] Thereafter, the cultured solution was recovered, and the amount of TNFα secreted into the culture solution was then measured by the ELISA method (Roche/R & D Systems) or the AlphaLISA method (PerkinElmer).
READOUT LABEL: IC50

[
  {
    "MOLECULE": "NC(=O)c1cc(F)c(N[C@@H]2CCCC[C@@H]2N)nc1Nc1cncc(NC(=O)c2ccccn2)c1 (relative stereo) [Example 027-020]",
    "READOUT LABEL": "IC50",
    "REPORTED RESULT": "130 to 200 nM"
  },
  {
    "MOLECULE": "NC(=O)c1cc(F)c(N[C@@H]2CCCC[C@@H]2N)nc1Nc1cnc2cccnc2c1 [Example 004-002]",
    "READOUT LABEL": "IC50",
    "REPORTED RESULT": "< 65 nM"
  },
  {
    "MOLECULE": "COC(=O)c1cncc(Nc2nc(N[C@@H]3CCCC[C@@H]3N)c(F)cc2C(N)=O)c1 [Example 004-016]",
    "READOUT LABEL": "IC50",
    "REPORTED RESULT": "65 to 130 nM"
  },
  {
    "MOLECULE": "CC(C)C[C@H](CN)Nc1nc(Nc2ccc3c(cnn3CCF)c2)c(C(N)=O)cc1F [Example 006-415]",
    "READOUT LABEL": "IC50",
    "REPORTED RESULT": "65 to 130 nM"
  },
  {
    "MOLECULE": "CC[C@@H](Nc1nc(Nc2cncc(-c3ccccc3F)c2)c(C(N)=O)cc1F)[C@H](C)N [Example 006-257]",
    "READOUT LABEL": "IC50",
    "REPORTED RESULT": "< 65 nM"
  },
  {
    "MOLECULE": "CC[C@@H](Nc1nc(Nc2ccc3c(c2)c(C2CC2)nn3CC)c(C(N)=O)cc1F)[C@H](C)N [Example 006-551]",
    "READOUT LABEL": "IC50",
    "REPORTED RESULT": "130 to 200 nM"
  },
  {
    "MOLECULE": "CCn1ncc2c(Nc3nc(N[C@H](C4CC4)[C@H](C)N)c(F)cc3C(N)=O)cccc21 [Example 006-576]",
    "READOUT LABEL": "IC50",
    "REPORTED RESULT": "< 65 nM"
  }
]

---

- TARGET ENTITY: glutathione S-transferase (GST)-fused full-length human Syk protein (Homo sapiens)
- Construct: (GST)-fused full-length human Syk protein; GST (glutathione S-transferase); purchased Carna Biosciences
- EXPERIMENTAL PROTOCOL: Syk enzyme assay
- Type: biochemical
- CONDITIONS: Syk enzyme assay, Test Example 1; read-out: IC50 of Syk-inhibitory activity
Property: IC50; scope: individual compounds
READOUT LABEL: IC50

[
  {
    "COMPOUND": "NC(=O)Nc1cccc2cc(Nc3nc(N[C@@H]4CCCC[C@@H]4N)c(F)cc3C(N)=O)cnc12 (relative stereo)",
    "TARGET ENTITY": "glutathione S-transferase (GST)-fused full-length human Syk protein (Homo sapiens)",
    "REPORTED RESULT": "100 to 1000 nM"
  },
  {
    "COMPOUND": "NC(=O)c1cc(F)c(NC2CCCCC2N)nc1Nc1ccc2cc(-n3cccn3)cnc2c1 (stereo not drawn)",
    "TARGET ENTITY": "glutathione S-transferase (GST)-fused full-length human Syk protein (Homo sapiens)",
    "REPORTED RESULT": "< 10 nM"
  },
  {
    "COMPOUND": "COc1ncc(Nc2nc(NC3CCCCC3N)c(F)cc2C(N)=O)cc1-c1ccccc1 (stereo not drawn)",
    "TARGET ENTITY": "glutathione S-transferase (GST)-fused full-length human Syk protein (Homo sapiens)",
    "REPORTED RESULT": "10 to 50 nM"
  },
  {
    "COMPOUND": "CCC[C@@H](Nc1nc(Nc2ccc3ncccc3c2)c(C(N)=O)cc1F)C(N)=O",
    "TARGET ENTITY": "glutathione S-transferase (GST)-fused full-length human Syk protein (Homo sapiens)",
    "REPORTED RESULT": "10 to 50 nM"
  },
  {
    "COMPOUND": "Cc1ncc(Nc2nc(N[C@@H]3CCCC[C@@H]3N)c(F)cc2C(N)=O)cc1-n1nccn1",
    "TARGET ENTITY": "glutathione S-transferase (GST)-fused full-length human Syk protein (Homo sapiens)",
    "REPORTED RESULT": "< 10 nM"
  },
  {
    "COMPOUND": "CC[C@@H](Nc1nc(Nc2ccc3c(c2)c(N2CCOCC2)nn3C)c(C(N)=O)cc1F)[C@H](C)N",
    "TARGET ENTITY": "glutathione S-transferase (GST)-fused full-length human Syk protein (Homo sapiens)",
    "REPORTED RESULT": "< 10 nM"
  },
  {
    "COMPOUND": "CCC[C@@H](Nc1nc(Nc2ccc(N3CCOCC3)nc2)c(C(N)=O)cc1F)[C@H](C)N",
    "TARGET ENTITY": "glutathione S-transferase (GST)-fused full-length human Syk protein (Homo sapiens)",
    "REPORTED RESULT": "10 to 50 nM"
  },
  {
    "COMPOUND": "CC[C@@H](Nc1nc(Nc2cccc3cccnc23)c(C(N)=O)cc1F)[C@H](C)N",
    "TARGET ENTITY": "glutathione S-transferase (GST)-fused full-length human Syk protein (Homo sapiens)",
    "REPORTED RESULT": "50 to 100 nM"
  },
  {
    "COMPOUND": "C[C@H](N)[C@H](C)Nc1nc(Nc2ccc3ncccc3c2)c(C(N)=O)cc1F [Example 006-202]",
    "TARGET ENTITY": "glutathione S-transferase (GST)-fused full-length human Syk protein (Homo sapiens)",
    "REPORTED RESULT": "50 to 100 nM"
  },
  {
    "COMPOUND": "C[C@H](N)[C@@H](C)Nc1nc(Nc2cccc(-n3ccnn3)c2)c(C(N)=O)cc1F (racemic)",
    "TARGET ENTITY": "glutathione S-transferase (GST)-fused full-length human Syk protein (Homo sapiens)",
    "REPORTED RESULT": "< 10 nM"
  },
  {
    "COMPOUND": "COc1ncc(Nc2nc(NC3CCCCC3N)c(F)cc2C(N)=O)cc1-c1ccoc1 (stereo not drawn)",
    "TARGET ENTITY": "glutathione S-transferase (GST)-fused full-length human Syk protein (Homo sapiens)",
    "REPORTED RESULT": "10 to 50 nM"
  },
  {
    "COMPOUND": "CN(C)c1cccc(-c2cncc(Nc3nc(N[C@@H]4CCCC[C@@H]4N)c(F)cc3C(N)=O)c2)c1 (relative stereo)",
    "TARGET ENTITY": "glutathione S-transferase (GST)-fused full-length human Syk protein (Homo sapiens)",
    "REPORTED RESULT": "< 10 nM"
  },
  {
    "COMPOUND": "CCC[C@@H](Nc1nc(Nc2ccnc(-n3nccn3)c2)c(C(N)=O)cc1F)[C@H](C)N",
    "TARGET ENTITY": "glutathione S-transferase (GST)-fused full-length human Syk protein (Homo sapiens)",
    "REPORTED RESULT": "< 10 nM"
  },
  {
    "COMPOUND": "CCOCCOCCn1cc2c(Nc3nc(NC4CCCCC4N)c(F)cc3C(N)=O)cccc2n1 (stereo not drawn)",
    "TARGET ENTITY": "glutathione S-transferase (GST)-fused full-length human Syk protein (Homo sapiens)",
    "REPORTED RESULT": "10 to 50 nM"
  },
  {
    "COMPOUND": "CC[C@H](N)[C@@H](CC)Nc1nc(Nc2cncc(F)c2)c(C(N)=O)cc1F",
    "TARGET ENTITY": "glutathione S-transferase (GST)-fused full-length human Syk protein (Homo sapiens)",
    "REPORTED RESULT": "10 to 50 nM"
  }
]
